measurement-label: melting point

The cases that follow already have their melting point on record.
compound: COc1ccc2c(c1)c(=O)oc1cc(OC(=O)c3ccccc3OC(C)=O)ccc12 [Mix 10]
observed-measurement: 192.6 to 193.5 °C
--
compound: COc1ccc2c(c1)c(=O)oc1cc(OC(=O)Cc3ccccc3Nc3c(Cl)cccc3Cl)ccc12 [Mix 9]
observed-measurement: 207.3 to 208.5 °C
--
compound: COc1ccc2c(c1)c(=O)oc1cc(OC(=O)c3ccccc3Nc3cccc(C)c3C)ccc12 [Mix 8]
observed-measurement: 186.7 to 189.2 °C

Query: melting point; subject: COc1ccc2c(c1)c(=O)oc1cc(OC(=O)C(C)c3ccc(CC(C)C)cc3)ccc12 (stereo not shown) [Mix 7]
114.4 to 115.7 °C
